Task for the reader: assign each of the following molecules its reported pKi.
Target: UniProtKB P0DMS8
Sequence (P0DMS8 whole entry): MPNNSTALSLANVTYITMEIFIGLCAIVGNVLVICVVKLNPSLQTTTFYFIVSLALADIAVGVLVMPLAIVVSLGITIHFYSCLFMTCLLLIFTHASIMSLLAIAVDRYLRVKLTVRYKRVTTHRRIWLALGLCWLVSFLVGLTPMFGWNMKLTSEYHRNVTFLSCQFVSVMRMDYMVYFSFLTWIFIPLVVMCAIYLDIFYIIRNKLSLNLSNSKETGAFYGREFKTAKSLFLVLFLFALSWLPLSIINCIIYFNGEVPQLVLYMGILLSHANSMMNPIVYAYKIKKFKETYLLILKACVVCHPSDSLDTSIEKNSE
Assay: Displacement of [125I]AB-MECA from human adenosine A3 receptor transfected in CHO cells
Answers are plain numbers, as −log10 of the molar value.

Previously resolved entries follow.
| Query Smiles | pKi |
| --- | --- |
| Cc1ccccc1CNc1nc(Cl)nc2c1ncn2[C@@H]1S[C@H](C(=O)N(C)C)[C@@H](O)[C@H]1O | 6.20 |
| CNc1nc(Cl)nc2c1ncn2[C@@H]1S[C@H](C(=O)NCCC(c2ccccc2)c2ccccc2)[C@@H](O)[C@H]1O | 6.38 |
| O=C([C@H]1S[C@@H](n2cnc3c(NCc4cccc(I)c4)nc(Cl)nc32)[C@H](O)[C@@H]1O)N1CCN(c2ccc(F)cc2)CC1 | 5.84 |

Give pKi for each listed item.
1. O=C([C@H]1S[C@@H](n2cnc3c(NC4CC4)nc(Cl)nc32)[C@H](O)[C@@H]1O)N1CCC(Cc2ccccc2)CC1
2. O=C([C@H]1S[C@@H](n2cnc3c(NCc4cccc(I)c4)nc(Cl)nc32)[C@H](O)[C@@H]1O)N1CCC(Cc2ccccc2)CC1
3. CNc1nc(Cl)nc2c1ncn2[C@@H]1S[C@H](C(=O)NCc2cccc(F)c2)[C@@H](O)[C@H]1O
4. O=C([C@H]1S[C@@H](n2cnc3c(NC4CC4)nc(Cl)nc32)[C@H](O)[C@@H]1O)N1CCOCC1
5. CCNC(=O)[C@H]1S[C@@H](n2cnc3c(NCc4cccc(I)c4)nc(Cl)nc32)[C@H](O)[C@@H]1O
6. CNc1nc(Cl)nc2c1ncn2[C@@H]1S[C@H](C(=O)NC2CC2)[C@@H](O)[C@H]1O

Response:
1. 5.40
2. 6.06
3. 7.76
4. 5.35
5. 9.05
6. 8.55

// each molecule listed below needs its pKi
1. Cc1ccccc1CNc1nc(Cl)nc2c1ncn2[C@@H]1S[C@H](C(=O)N2CCOCC2)[C@@H](O)[C@H]1O
2. CNc1nc(Cl)nc2c1ncn2[C@@H]1S[C@H](C(=O)NCCC(C)C)[C@@H](O)[C@H]1O
3. CCNC(=O)[C@H]1S[C@@H](n2cnc3c(NCc4ccccc4C)nc(Cl)nc32)[C@H](O)[C@@H]1O

Response:
[5.12, 8.79, 8.60]

Quick batch: pKi for everything below.
1. CNc1nc(Cl)nc2c1ncn2[C@@H]1S[C@H](C(=O)N(C)C)[C@@H](O)[C@H]1O
2. Cc1ccccc1CNc1nc(Cl)nc2c1ncn2[C@@H]1S[C@H](C(=O)NC2CC2)[C@@H](O)[C@H]1O
3. CC(C)CCNC(=O)[C@H]1S[C@@H](n2cnc3c(NCc4cccc(I)c4)nc(Cl)nc32)[C@H](O)[C@@H]1O
4. O=C(NC1CC1)[C@H]1S[C@@H](n2cnc3c(NCc4cccc(I)c4)nc(Cl)nc32)[C@H](O)[C@@H]1O

Response:
[5.82, 7.56, 7.38, 8.53]

Hello, the source for this data is ChEMBL document CHEMBL1148606, in case you need it.
